- System: Mus musculus
- methodSummary: Compound was evaluated in vivo for its effective dose against Murine candidiasis
- Type: functional
reportedMetric: ED50

Form: compound = `C/C=C1\NC(=O)[C@H]([C@H](C)O)NC(=O)[C@H](CCNC(=O)OCOC(=O)C(C)C)NC(=O)[C@H](CCCCNC(=O)OCOC(=O)C(C)C)NC(=O)[C@H](CC(=O)NCCN(C)C)NC(=O)[C@@H](CCNC(=O)OCOC(=O)C(C)C)NC(=O)[C@@H](NC(=O)C[C@H](O)CCCCCCCCCCC)COC(=O)[C@H]([C@H](O)CCl)NC(=O)[C@H]([C@H](O)C(=O)O)NC1=O` ; ED50 = 6.6 mg/kg

Form: compound = `C/C=C1\NC(=O)[C@H]([C@H](C)O)NC(=O)[C@H](CCNC(=O)OCOC(=O)C(C)C)NC(=O)[C@H](CCCCNC(=O)OCOC(=O)C(C)C)NC(=O)[C@H](CC(=O)NCC(=O)OC)NC(=O)[C@@H](CCNC(=O)OCOC(=O)C(C)C)NC(=O)[C@@H](NC(=O)C[C@H](O)CCCCCCCCCCC)COC(=O)[C@H]([C@H](O)CCl)NC(=O)[C@H]([C@H](O)C(=O)O)NC1=O` ; ED50 = < 5 mg/kg

Form: compound = `C/C=C1\NC(=O)[C@H]([C@H](C)O)NC(=O)[C@H](CCNC(=O)OCOC(=O)C(C)(C)C)NC(=O)[C@H](CCCCNC(=O)OCOC(=O)C(C)(C)C)NC(=O)[C@H](CC(=O)NC2CC2)NC(=O)[C@@H](CCNC(=O)OCOC(=O)C(C)(C)C)NC(=O)[C@@H](NC(=O)C[C@H](O)CCCCCCCCCCC)COC(=O)[C@H]([C@H](O)CCl)NC(=O)[C@H]([C@H](O)C(=O)O)NC1=O` ; ED50 = < 5 mg/kg

----------
Give MIC for every item shown.
- System: Candida albicans
- methodSummary: Minimum inhibitory concentration against Candida albicans.
- Format: functional
Bridge positions count the residues as written; N and C are the ends. Square brackets hold non-standard residues; d marks the D form. Peptide text beside a SMILES is read from it. * marks the point of attachment. Tetradecanoyl(3R-OH) = CCCCCCCCCCC[C@@H](O)CC(=O)*; Asp(3S-OH) = N[C@H](C(=O)O)[C@H](O)C(=O)O; Thr(4-Cl) = N[C@H](C(=O)O)[C@H](O)CCl; aThr = C[C@H](O)[C@H](N)C(=O)O; dDab = NCC[C@@H](N)C(=O)O; Dab = NCC[C@H](N)C(=O)O; Dhb = C/C=C(\N)C(=O)O; X1 = CCN(CC)CCN*
Report the figure along with its unit, number first.

Form: compound = `C/C=C1\NC(=O)[C@H]([C@H](C)O)NC(=O)[C@H](CCNC(=O)OCOC(=O)C(C)C)NC(=O)[C@H](CCCCNC(=O)OCOC(=O)C(C)C)NC(=O)[C@H](CC(N)=O)NC(=O)[C@@H](CCNC(=O)OCOC(=O)C(C)C)NC(=O)[C@@H](NC(=O)C[C@H](O)CCCCCCCCCCC)COC(=O)[C@H]([C@H](O)CCl)NC(=O)[C@H]([C@H](O)C(=O)O)NC1=O` ; MIC = 20 µg/mL

Form: compound = C/C=C1\NC(=O)[C@H]([C@H](C)O)NC(=O)[C@H](CCN)NC(=O)[C@H](CCCCN)NC(=O)[C@H](CC(=O)O)NC(=O)[C@@H](CCN)NC(=O)[C@@H](NC(=O)C[C@H](O)CCCCCCCCCCC)COC(=O)[C@H]([C@H](O)CCl)NC(=O)[C@H]([C@H](O)C(=O)O)NC1=O [PSEUDOMYCIN B] ({Tetradecanoyl(3R-OH)}-S[dDab]DK[Dab][aThr][Dhb][Asp(3S-OH)][Thr(4-Cl)]; ester 1-C) ; MIC = 0.625 µg/mL

Form: compound = `C/C=C1\NC(=O)[C@H]([C@H](C)O)NC(=O)[C@H](CCN)NC(=O)[C@H](CCCCN)NC(=O)[C@H](CC(=O)NC(C)(C)CC)NC(=O)[C@@H](CCN)NC(=O)[C@@H](NC(=O)C[C@H](O)CCCCCCCCCCC)COC(=O)[C@H]([C@H](O)CCl)NC(=O)[C@H]([C@H](O)C(=O)O)NC1=O` ; MIC = 0.312 µg/mL

Form: compound = C/C=C1\NC(=O)[C@H]([C@H](C)O)NC(=O)[C@H](CCN)NC(=O)[C@H](CCCCN)NC(=O)[C@H](CC(N)=O)NC(=O)[C@@H](CCN)NC(=O)[C@@H](NC(=O)C[C@H](O)CCCCCCCCCCC)COC(=O)[C@H]([C@H](O)CCl)NC(=O)[C@H]([C@H](O)C(=O)O)NC1=O ({Tetradecanoyl(3R-OH)}-S[dDab]NK[Dab][aThr][Dhb][Asp(3S-OH)][Thr(4-Cl)]; ester 1-C) ; MIC = 2.5 µg/mL

Form: compound = C/C=C1\NC(=O)[C@H]([C@H](C)O)NC(=O)[C@H](CCN)NC(=O)[C@H](CCCCN)NC(=O)[C@H](CC(=O)NCCN(CC)CC)NC(=O)[C@@H](CCN)NC(=O)[C@@H](NC(=O)C[C@H](O)CCCCCCCCCCC)COC(=O)[C@H]([C@H](O)CCl)NC(=O)[C@H]([C@H](O)C(=O)O)NC1=O ({Tetradecanoyl(3R-OH)}-S[dDab]D(X1)K[Dab][aThr][Dhb][Asp(3S-OH)][Thr(4-Cl)]; ester 1-C) ; MIC = 10 µg/mL

Form: compound = `C/C=C1\NC(=O)[C@H]([C@H](C)O)NC(=O)[C@H](CCNC(=O)OCOC(=O)C(C)C)NC(=O)[C@H](CCCCNC(=O)OCOC(=O)C(C)C)NC(=O)[C@H](CC(=O)NC(C)(C)CC)NC(=O)[C@@H](CCNC(=O)OCOC(=O)C(C)C)NC(=O)[C@@H](NC(=O)C[C@H](O)CCCCCCCCCCC)COC(=O)[C@H]([C@H](O)CCl)NC(=O)[C@H]([C@H](O)C(=O)O)NC1=O` ; MIC = 20 µg/mL

Form: compound = `C/C=C1\NC(=O)[C@H]([C@H](C)O)NC(=O)[C@H](CCNC(=O)OCOC(=O)C(C)C)NC(=O)[C@H](CCCCNC(=O)OCOC(=O)C(C)C)NC(=O)[C@H](CC(=O)NCCN(CC)CC)NC(=O)[C@@H](CCNC(=O)OCOC(=O)C(C)C)NC(=O)[C@@H](NC(=O)C[C@H](O)CCCCCCCCCCC)COC(=O)[C@H]([C@H](O)CCl)NC(=O)[C@H]([C@H](O)C(=O)O)NC1=O` ; MIC = 20 µg/mL

----------
Give ED50 for every item shown.
- Tested on: Mus musculus
- methodSummary: Compound was evaluated in vivo for its effective dose against Murine candidiasis
- Assay type: functional
Bridge positions count the residues as written; N and C are the ends. Square brackets hold non-standard residues; d marks the D form. Peptide text beside a SMILES is read from it. * marks the point of attachment. Tetradecanoyl(3R-OH) = CCCCCCCCCCC[C@@H](O)CC(=O)*; Asp(3S-OH) = N[C@H](C(=O)O)[C@H](O)C(=O)O; Thr(4-Cl) = N[C@H](C(=O)O)[C@H](O)CCl; aThr = C[C@H](O)[C@H](N)C(=O)O; dDab = NCC[C@@H](N)C(=O)O; Dab = NCC[C@H](N)C(=O)O; Dhb = C/C=C(\N)C(=O)O; NHcPr = C1CC1N*

Form: molecule = `C/C=C1\NC(=O)[C@H]([C@H](C)O)NC(=O)[C@H](CCNC(=O)OCOC(=O)C(C)(C)C)NC(=O)[C@H](CCCCNC(=O)OCOC(=O)C(C)(C)C)NC(=O)[C@H](CC(=O)NCC(=O)OC)NC(=O)[C@@H](CCNC(=O)OCOC(=O)C(C)(C)C)NC(=O)[C@@H](NC(=O)C[C@H](O)CCCCCCCCCCC)COC(=O)[C@H]([C@H](O)CCl)NC(=O)[C@H]([C@H](O)C(=O)O)NC1=O` ; ED50 = < 5 mg/kg

Form: molecule = C/C=C1\NC(=O)[C@H]([C@H](C)O)NC(=O)[C@H](CCN)NC(=O)[C@H](CCCCN)NC(=O)[C@H](CC(=O)NC2CC2)NC(=O)[C@@H](CCN)NC(=O)[C@@H](NC(=O)C[C@H](O)CCCCCCCCCCC)COC(=O)[C@H]([C@H](O)CCl)NC(=O)[C@H]([C@H](O)C(=O)O)NC1=O ({Tetradecanoyl(3R-OH)}-S[dDab]D(NHcPr)K[Dab][aThr][Dhb][Asp(3S-OH)][Thr(4-Cl)]; ester 1-C) ; ED50 = < 5 mg/kg

Form: molecule = `C/C=C1\NC(=O)[C@H]([C@H](C)O)NC(=O)[C@H](CCNC(=O)OCOC(=O)C(C)C)NC(=O)[C@H](CCCCNC(=O)OCOC(=O)C(C)C)NC(=O)[C@H](CC(=O)NC2CC2)NC(=O)[C@@H](CCNC(=O)OCOC(=O)C(C)C)NC(=O)[C@@H](NC(=O)C[C@H](O)CCCCCCCCCCC)COC(=O)[C@H]([C@H](O)CCl)NC(=O)[C@H]([C@H](O)C(=O)O)NC1=O` ; ED50 = < 5 mg/kg
